# Tested on: DeltatarO mutant
# Experiment Description: S. aureus survival, RN4220 and DeltatarO strains – OD600, teichoic acid synthesis inhibitors, primary screen (AID 463173)
# Test Settings: S. aureus RN4220 wild type/DeltatarO growth, OD600, 18 h, screened at 18.75 µg/mL (by protocol)
Out of some 52,000 compounds screened, about 4,300 (8.3%) were called active. Cut-off read from the data, not from the text of the source: active = survival mostly below about 52% (no sharp cut-off); inactive = mostly above about 56%. For the sample, actives were picked, then their nearest neighbours and some compounds at random.
Your answer must be one of the following: T = active, F = inactive

Look over these answered cases.
- Molecule: "COc1ccc(OC)c(NC(=O)CSc2ccc(-c3sc(C)nc3C)nn2)c1"
  Qualitative Label: "F"
- Molecule: "CC(=O)C1=C(c2cccc([N+](=O)[O-])c2)N(C(C)=O)n2c(nnc2-c2ccc(C)cc2)S1"
  Qualitative Label: "F"

Test call, this molecule: Cc1ccc(NC(=O)C(Cc2ccccc2)NS(=O)(=O)c2cccs2)cc1Cl (stereo not given) F

The origin of these recorded values is PubChem BioAssay AID463173.
